# study system: T1, PSMA Fab
# T1 construct: also called Anti-PSMA Fab; 006 PSMA Fab
# procedure text: phage binding ELISA; biotinylated PSMA Fab on neutravidin plate, clonal phage supernatant, anti-M13 HRP detection; column read as anti-PSMA Fab pre-incubated with PSMA antigen as competitor
Where no end group is shown, it is not given here.
Lab note: compare phage binding ELISA signal with 0.09, writing Criterion met if less and Criterion not met if equal or more.

DGIWCTPRWMCEGM [Phage-2593]    Criterion met
MPRWCTPAWMCEAI [Phage-2590]    Criterion met
ETKLCKPMWMCALL (cysteine pairing not given here; also: displayed on phage as pIII fusion) [Phage-2602]    Criterion not met
IEKWCMPSWMCEWN [Phage-2601]    Criterion met
MIGWCTPSWMCSGF [Phage-2588]    Criterion met

I wonder whether TDKWCVPEWMCMEF [Phage-2591] has phage binding ELISA signal below 0.09. Can you tell? Criterion met

I wonder whether HPQLCIPSWMCNVW [Phage-2594] has phage binding ELISA signal below 0.09. Can you tell? Criterion not met

I wonder whether MFKWCTPSWMCERV [Phage-2596] has phage binding ELISA signal below 0.09. Can you tell? Criterion not met
